# thermal stability score per record follows
- Tested on: HeLa Kyoto;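 also: synchronized HeLa Kyoto cells, proteins quantified by TMT10plex mass spectrometry, three biological replicates, mitosis taken 0.5 h after nocodazole release, G1/S directly after double thymidine block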
- experiment: thermal stability score vs G1/S (z-score of summed log2 fold changes over temperatures); higher = more thermally stable than in G1/S
- applied-conditions: cell cycle stage: mitosis
// no unit, no text: just the number

Examples from the recorded data:
MTQPVPRLSVPAALALGSAALGAAFATGLFLGRRCPPWRGRREQCLLPPEDSRLWQYLLSRSMREHPALRSLRLLTLEQPQGDSMMTCEQAQLLANLARLIQAKKALDLGTFTGYSALALALALPADGRVVTCEVDAQPPELGRPLWRQAEAEHKIDLRLKPALETLDELLAAGEAGTFDVAVVDADKENCSAYYERCLQLLRPGGILAVLRVLWRGKVLQPPKGDVAAECVRNLNERIRRDVRVYISLLPLGDGLTLAFKI [COMTD1]
0.44
MAANKPKGQNSLALHKVIMVGSGGVGKSALTLQFMYDEFVEDYEPTKADSYRKKVVLDGEEVQIDILDTAGQEDYAAIRDNYFRSGEGFLCVFSITEMESFAATADFREQILRVKEDENVPFLLVGNKSDLEDKRQVSVEEAKNRAEQWNVNYVETSAKTRANVDKVFFDLMREIRARKMEDSKEKNGKKKRKSLAKRIRERCCIL [RALA]
-3.15

Continue with the next sequence.
Retrieve thermal stability score measured for MRSARSTALNRGEQRAVRYYSHMKLNMAEEEDYMSDSFINVQEDIRPGLPMLRQIREARRKEEKQQEANLKNRQKSLKEEEQERRDIGLKNALGCENKGFALLQKMGYKSGQALGKSGGGIVEPIPLNIKTGKSGIGHEASLKRKAEEKLESYRKKIHMKNQAEEKAAEQFRMRLKNKQDEMKLEGDLRRSQRACQQLDVQKNIQVPREAWYWLRLEEETEEDEEEKEQDEDEYKSEDLSVLEKLQILTSYLREEHLYCIWCGTAYEDKEDLSSNCPGPTSADHD [GPATCH11] and print it.
-0.0183
